We begin with a simple list: items and their reported Inhibition of PAD4: value at 80 µM inhibitor (0 µM: 67).
# System Name: recombinant human PAD4 (human, UniProt Q9UM07 1-663)
# Sequence (Q9UM07 whole entry): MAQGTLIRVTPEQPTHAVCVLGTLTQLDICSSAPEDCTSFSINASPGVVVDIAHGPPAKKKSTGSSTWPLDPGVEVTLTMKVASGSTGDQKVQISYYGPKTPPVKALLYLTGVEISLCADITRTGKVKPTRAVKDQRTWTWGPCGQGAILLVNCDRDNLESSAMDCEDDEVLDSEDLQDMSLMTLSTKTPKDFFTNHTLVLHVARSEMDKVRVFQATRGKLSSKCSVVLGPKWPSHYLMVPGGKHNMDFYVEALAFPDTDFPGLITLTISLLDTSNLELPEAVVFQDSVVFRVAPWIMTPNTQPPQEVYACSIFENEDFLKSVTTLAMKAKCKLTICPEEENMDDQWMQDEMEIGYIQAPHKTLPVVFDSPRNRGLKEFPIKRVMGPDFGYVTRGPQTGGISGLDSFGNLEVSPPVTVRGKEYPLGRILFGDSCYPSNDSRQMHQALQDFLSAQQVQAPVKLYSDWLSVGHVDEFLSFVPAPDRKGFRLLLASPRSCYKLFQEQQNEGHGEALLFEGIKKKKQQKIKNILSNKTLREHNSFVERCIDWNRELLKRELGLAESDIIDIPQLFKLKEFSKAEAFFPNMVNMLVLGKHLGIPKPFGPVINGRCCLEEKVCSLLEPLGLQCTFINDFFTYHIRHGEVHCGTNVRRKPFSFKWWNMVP
# Assay Summary: cell-based or functional assay
Square brackets hold non-standard residues; d marks the D form. * marks the point of attachment. Orn(fluoroacetimidoyl) = N=C(CF)NCCC[C@H](N)C(=O)O; 2Naphthylsulfonyl = O=S(=O)(c1ccc2ccccc2c1)*; AEEA = NCCOCCOCC(=O)O
API: value field is a number in %; no unit string.

Consider the worked cases shown below.
# Binder, Uom, Recorded Result
rows = [
    ("2Naphthylsulfonyl-KWH[Orn(fluoroacetimidoyl)]DFF-NH2 (SMILES N=C(CF)NCCC[C@H](NC(=O)[C@H](Cc1c[nH]cn1)NC(=O)[C@H](Cc1c[nH]c2ccccc12)NC(=O)[C@H](CCCCN)NS(=O)(=O)c1ccc2ccccc2c1)C(=O)N[C@@H](CC(=O)O)C(=O)N[C@@H](Cc1ccccc1)C(=O)N[C@@H](Cc1ccccc1)C(N)=O) [0837-30FA]", "%", 7),
    ("Ac-KWH[Orn(fluoroacetimidoyl)]DFF-NH2 (SMILES CC(=O)N[C@@H](CCCCN)C(=O)N[C@@H](Cc1c[nH]c2ccccc12)C(=O)N[C@@H](Cc1c[nH]cn1)C(=O)N[C@@H](CCCNC(=N)CF)C(=O)N[C@@H](CC(=O)O)C(=O)N[C@@H](Cc1ccccc1)C(=O)N[C@@H](Cc1ccccc1)C(N)=O) [0748-09FA]", "%", 18),
    ("2Naphthylsulfonyl-KWH[Orn(fluoroacetimidoyl)]DFF[AEEA]-NH2 (SMILES N=C(CF)NCCC[C@H](NC(=O)[C@H](Cc1c[nH]cn1)NC(=O)[C@H](Cc1c[nH]c2ccccc12)NC(=O)[C@H](CCCCN)NS(=O)(=O)c1ccc2ccccc2c1)C(=O)N[C@@H](CC(=O)O)C(=O)N[C@@H](Cc1ccccc1)C(=O)N[C@@H](Cc1ccccc1)C(=O)NCCOCCOCC(N)=O) [0837-28FA]", "%", 9),
]

Query: Name the recorded Inhibition of PAD4: value at 80 µM inhibitor (0 µM: 67) for Ac-KWH[Orn(fluoroacetimidoyl)]DFF[AEEA]-NH2 (SMILES CC(=O)N[C@@H](CCCCN)C(=O)N[C@@H](Cc1c[nH]c2ccccc12)C(=O)N[C@@H](Cc1c[nH]cn1)C(=O)N[C@@H](CCCNC(=N)CF)C(=O)N[C@@H](CC(=O)O)C(=O)N[C@@H](Cc1ccccc1)C(=O)N[C@@H](Cc1ccccc1)C(=O)NCCOCCOCC(N)=O) [0837-14FA] .
Response: 21
